assay: Pharmacokinetics: concentration of prodrug (or propofol) in rat plasma after intravenous infusion, LC/MS/MS; conditions: male, Sprague-Dawley, rat, plasma, iv, 0.168 mmol/Kg
measured-quantity: Tmax (min)
Entry rule: numbers only, all in min.

CC(C)c1cccc(C(C)C)c1OC(=O)OCCCO[C@@H]1O[C@H](CO)[C@@H](O)[C@H](O)[C@H]1O : 10.2
CC(C)c1cccc(C(C)C)c1OC(=O)OCCO[C@@H]1O[C@H](CO)C(O[C@H]2O[C@H](CO)[C@@H](O)[C@H](O)[C@H]2O)[C@H](O)[C@H]1O (stereo partly shown) : 8.4
CC(C)c1cccc(C(C)C)c1OC(=O)NCCO[C@@H]1O[C@H](CO)[C@@H](O)[C@H](O)[C@H]1O : 10.2
CC(C)c1cccc(C(C)C)c1OC(=O)OCCCO[C@@H]1O[C@H](CO)C(O[C@H]2O[C@H](CO)[C@@H](O)[C@H](O)[C@H]2O)[C@H](O)[C@H]1O (stereo partly shown) : 10.2
CC(C)c1cccc(C(C)C)c1O [Propofol, 2,6-diisopropylphenol, reference compound] : 10.8

Input: What does the data say about its Tmax? Entry: CC(C)c1cccc(C(C)C)c1OC(=O)OCCCO[C@H]1O[C@H](CO)[C@@H](O)[C@H](O)[C@H]1O
Output: 10.2

Input: Moving on to CC(C)c1cccc(C(C)C)c1OC(=O)OCCO[C@H]1O[C@H](CO)[C@@H](O)[C@H](O)[C@H]1O
Output: 8.4

Origin of measurements: patent US20120295866A1
